Every entry's value here was drawn from ChEMBL document CHEMBL4002560.

# TEST: Cytotoxicity against mouse EAT cells assessed as cell death at 50 uM after 16 hrs by trypan blue dye exclusion assay relative to control
# Type: functional
The molecules listed here are annotated with their Activity.
Give a bare numeral; the unit % is implied.

Example cases with answers are listed next.
COc1cc(C2=NOC(CN3CCN(c4nsc5ccccc45)CC3)C2)ccc1OCc1ccccc1 (centres undefined): 53
c1ccc(C2=NOC(CN3CCN(c4nsc5ccccc45)CC3)C2)cc1 (centres undefined): 50

Challenge: So what does the record say about Activity for c1ccc(COc2ccc(C3=NOC(CN4CCN(c5nsc6ccccc56)CC4)C3)cc2)cc1 (centres undefined) ?
Response given: 45.6

Challenge: So what does the record say about Activity for COc1ccc(C2=NOC(CN3CCN(c4nsc5ccccc45)CC3)C2)cc1OCc1ccccc1 (centres undefined) ?
Response given: 44.6

* * *

# Tested on: MDA-MB-231
# TEST: Cytotoxicity against human MDA-MB-231 cells assessed as decrease in cell viability at 2 to 200 uM after 16 hrs by MTT assay
# Assay type: functional, cell-based
Calls of active or inactive are those of the source. No cut-off for these calls is given here.
The reply should be one of these categories: active, inactive

Check out these entries, answers already filled in.
c1ccc(C2=NOC(CN3CCN(c4nsc5ccccc45)CC3)C2)cc1 (stereo unspecified): inactive
COc1ccc(C2=NOC(CN3CCN(c4nsc5ccccc45)CC3)C2)cc1OC (stereo unspecified): active
COc1cc(C2=NOC(CN3CCN(c4nsc5ccccc45)CC3)C2)cc(OC)c1OC (stereo unspecified): inactive

Challenge: Tell me the recorded outcome of this test for c1ccc(COc2ccc(C3=NOC(CN4CCN(c5nsc6ccccc56)CC4)C3)cc2)cc1 (stereo unspecified) .
Response given: active

Challenge: Tell me the recorded outcome of this test for COc1ccc(C2=NOC(CN3CCN(c4nsc5ccccc45)CC3)C2)cc1 (stereo unspecified) .
Response given: active

Challenge: Tell me the recorded outcome of this test for Fc1ccc(C2=NOC(CN3CCN(c4nsc5ccccc45)CC3)C2)cc1 (stereo unspecified) .
Response given: inactive
